- METHOD_NOTES: AUC (0 to infinity) in cynomolgus monkey at 1 mg/kg, iv
- Type: ADME, organism-based, Macaca fascicularis
- Parameters: dose 1 mg/kg, time infinity, route intravenous
- CONDITION_LABEL: in vivo
OBSERVABLE: AUC(0-inf) (µM·h)
Expressed in µM·h, but write only the number.

Record C=C(C)[C@@H]1CC[C@]2(NCCN3CCS(=O)(=O)CC3)CC[C@]3(C)[C@H](CC[C@@H]4[C@@]5(C)CC=C(c6ccc(C(=O)O)cc6)C(C)(C)[C@@H]5CC[C@]43C)[C@@H]12 [BMS-955176] , field AUC(0-inf): 13.6

====

- METHOD_NOTES: in vitro
- CONDITION_LABEL: rat, liver microsomes
- Description: Half life in rat liver microsomes at 0.5 uM after 1 hr in presence of NADPH by LC-MS/MS analysis
Listed next: entries and their corresponding half-life at 1 h, 0.5 µM.

{"COMPOUND": "C=C(C)[C@@H]1CC[C@]2(NCCN3CCCCS3(=O)=O)CC[C@]3(C)[C@H](CC[C@@H]4[C@@]5(C)CC=C(c6ccc(C(=O)O)cc6)C(C)(C)[C@@H]5CC[C@]43C)[C@@H]12", "half-life at 1 h, 0.5 µM": "> 2 h"}
{"COMPOUND": "C=C(C)[C@@H]1CC[C@]2(NC(=O)CN3CCS(=O)(=O)CC3)CC[C@]3(C)[C@H](CC[C@@H]4[C@@]5(C)CC=C(c6ccc(C(=O)O)cc6)C(C)(C)[C@@H]5CC[C@]43C)[C@@H]12", "half-life at 1 h, 0.5 µM": "> 2 h"}
{"COMPOUND": "C=C(C)[C@@H]1CC[C@]2(NCCC3CCS(=O)(=O)CC3)CC[C@]3(C)[C@H](CC[C@@H]4[C@@]5(C)CC=C(c6ccc(C(=O)O)cc6)C(C)(C)[C@@H]5CC[C@]43C)[C@@H]12", "half-life at 1 h, 0.5 µM": "> 2 h"}

The reported value for C=C(C)[C@@H]1CC[C@]2(NCCNC3CCS(=O)(=O)C3)CC[C@]3(C)[C@H](CC[C@@H]4[C@@]5(C)CC=C(c6ccc(C(=O)O)cc6)C(C)(C)[C@@H]5CC[C@]43C)[C@@H]12 (stereo not given in full) in terms of half-life at 1 h, 0.5 µM is > 2 h

// half-life at 1 h, 0.5 µM value for `C=C(C)[C@@H]1CC[C@]2(C(=O)NCCC(=O)O)CC[C@]3(C)[C@H](CC[C@@H]4[C@@]5(C)CC=C(c6ccc(C(=O)O)cc6)C(C)(C)[C@@H]5CC[C@]43C)[C@@H]12` : > 2 h

====

- METHOD_NOTES: Tmax in MDR1 a/b knockout mouse at 5 mg/kg, po administered via gavage
- Assay type: ADME, organism-based
- CONDITION_LABEL: in vivo
OBSERVABLE: Tmax

Noted for `C=C(C)[C@@H]1CC[C@]2(NCCN3CCS(=O)(=O)CC3)CC[C@]3(C)[C@H](CC[C@@H]4[C@@]5(C)CC=C(c6ccc(C(=O)O)cc6)C(C)(C)[C@@H]5CC[C@]43C)[C@@H]12` : its Tmax reads 3 h

====

- System: Human immunodeficiency virus 1
- METHOD_NOTES: microbe, parasite or virus in culture
- CONDITION_LABEL: Human immunodeficiency virus 1, MT2
- Description: Antiviral activity against HIV1 expressing gag delta V370 mutant infected in human MT2 cells after 4 to 5 days by dual luciferase reporter gene assay
Output: class label from EC50. Mapping: group A = under 10 nM, group B = from 10 nM up to 60 nM, group C = 60 nM and over

These recorded examples may help you get a feel for the data.
{"MOLECULE": "C=C(C)[C@@H]1CC[C@]2(NC(=O)OCCN3CCS(=O)(=O)CC3)CC[C@]3(C)[C@H](CC[C@@H]4[C@@]5(C)CC=C(c6ccc(C(=O)O)cc6)C(C)(C)[C@@H]5CC[C@]43C)[C@@H]12", "LABEL_VALUE": "group C"}
{"MOLECULE": "C=C(C)[C@@H]1CC[C@]2(NCCN3CCC4(C3)CN(S(C)(=O)=O)C4)CC[C@]3(C)[C@H](CC[C@@H]4[C@@]5(C)CC=C(c6ccc(C(=O)O)cc6)C(C)(C)[C@@H]5CC[C@]43C)[C@@H]12", "LABEL_VALUE": "group B"}
{"MOLECULE": "C=C(C)[C@@H]1CC[C@]2(NCCN3CCN(S(C)(=O)=O)CC3)CC[C@]3(C)[C@H](CC[C@@H]4[C@@]5(C)CC=C(c6ccc(C(=O)O)cc6)C(C)(C)[C@@H]5CC[C@]43C)[C@@H]12", "LABEL_VALUE": "group B"}
{"MOLECULE": "C=C(C)[C@@H]1CC[C@]2(NCCN3CCS(=N)(=O)CC3)CC[C@]3(C)[C@H](CC[C@@H]4[C@@]5(C)CC=C(c6ccc(C(=O)O)cc6)C(C)(C)[C@@H]5CC[C@]43C)[C@@H]12", "LABEL_VALUE": "group A"}
{"MOLECULE": "C=C(C)[C@@H]1CC[C@]2(NCCCN3CCS(=O)(=O)CC3)CC[C@]3(C)[C@H](CC[C@@H]4[C@@]5(C)CC=C(c6ccc(C(=O)O)cc6)C(C)(C)[C@@H]5CC[C@]43C)[C@@H]12", "LABEL_VALUE": "group B"}

Field: class (EC50) — entry: C=C(C)[C@@H]1CC[C@]2(NCCNC3CCS(=O)(=O)C3)CC[C@]3(C)[C@H](CC[C@@H]4[C@@]5(C)CC=C(c6ccc(C(=O)O)cc6)C(C)(C)[C@@H]5CC[C@]43C)[C@@H]12 (stereo partly specified) group B

Each molecule maps to one class by EC50. Which class for `C=C(C)[C@@H]1CC[C@]2(NCCN3CCC(S(C)(=O)=O)CC3)CC[C@]3(C)[C@H](CC[C@@H]4[C@@]5(C)CC=C(c6ccc(C(=O)O)cc6)C(C)(C)[C@@H]5CC[C@]43C)[C@@H]12` ? group B

Hey, which category is `C=C(C)[C@@H]1CC[C@]2(NC(=O)NCCN3CCS(=O)(=O)CC3)CC[C@]3(C)[C@H](CC[C@@H]4[C@@]5(C)CC=C(c6ccc(C(=O)O)cc6)C(C)(C)[C@@H]5CC[C@]43C)[C@@H]12` in, do you know? group C

Input C=C(C)[C@@H]1CC[C@]2(NC(=O)C(C(C)C)N3CCS(=O)(=O)CC3)CC[C@]3(C)[C@H](CC[C@@H]4[C@@]5(C)CC=C(c6ccc(C(=O)O)cc6)C(C)(C)[C@@H]5CC[C@]43C)[C@@H]12 (stereo partly specified) ; output its category group C

Using the reported EC50, which band applies to `C=C(C)[C@@H]1CC[C@]2(NC(=O)CCN3CCS(=O)(=O)CC3)CC[C@]3(C)[C@H](CC[C@@H]4[C@@]5(C)CC=C(c6ccc(C(=O)O)cc6)C(C)(C)[C@@H]5CC[C@]43C)[C@@H]12` ? group C

Please report the category associated with `C=C(C)[C@@H]1CC[C@]2(NCCN3C[C@@H]4C[C@H]3CN4S(C)(=O)=O)CC[C@]3(C)[C@H](CC[C@@H]4[C@@]5(C)CC=C(c6ccc(C(=O)O)cc6)C(C)(C)[C@@H]5CC[C@]43C)[C@@H]12` , nothing else. group A
